Molecular target: T1, GFP-9S library array, motif 4 ND N98H;D124L (synthetic construct, N98H;D124L)
T1 chain: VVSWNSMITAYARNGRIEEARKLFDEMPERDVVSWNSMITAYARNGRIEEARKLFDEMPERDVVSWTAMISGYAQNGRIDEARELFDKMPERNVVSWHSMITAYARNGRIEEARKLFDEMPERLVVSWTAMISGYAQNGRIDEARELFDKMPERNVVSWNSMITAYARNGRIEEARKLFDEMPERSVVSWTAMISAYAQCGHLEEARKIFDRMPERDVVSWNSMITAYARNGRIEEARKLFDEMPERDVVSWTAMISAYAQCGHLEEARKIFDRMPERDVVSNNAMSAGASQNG
Experiment: high-throughput RNA pulldown from lysate on Ni-NTA beads; HRP: 50 mM Tris pH 8, 150 mM NaCl, 1 mM beta-mercaptoethanol, 50 ug/ml BSA, 3 ug/ml yeast RNA, 0.5% heparin; ITC and FP: Tris pH 8, 200 mM KCl, 5% glycerol; MST: 50 mM Tris pH 8, 200 mM NaCl, 1 mM DTT, BSA, heparin, 0.05% Tween 20
Settings: tags: N-terminal His-eGFP; label: 5' IRDye 800CW
Measurement kind: pKd
On this scale, pKd is minus log10 of a concentration expressed in M (mol/L).

Value lookup for pKd; key = AUUAAACGUGA (ssRNA) [IR-rpoA-A]
7.09

Value lookup for pKd; key = AUUAUACGUGA (ssRNA) [IR-rpoA-U]
7.49
